Field: melting point. Provide a value for each of the compounds that follow.
Please respond with the number in °C and leave the unit unwritten.

Recorded result, C[C@@H]1CCNC[C@@H]1N(C)c1nccc2[nH]ccc12 [Example 18] , melting point: 126.9

Recorded result, C[C@@H]1CCN(C(=O)CC#N)C[C@@H]1N(C)c1ncnn2ccnc12 [Example 4] , melting point: 72

Recorded result, C[C@@H]1CCN(C(=O)CC#N)C[C@@H]1N(C)c1ncnc2ccoc12 [Example 2] , melting point: 107.7

Recorded result, C[C@@H]1CCN(c2ncnn3cccc23)C[C@@H]1N(C)c1ncnn2cccc12 [Example 17] , melting point: 103.4

Recorded result, C[C@@H]1CCN(C(=O)CC#N)C[C@@H]1N(C)c1ncnc2sccc12 [Example 9] , melting point: 74.3

Recorded result, Cc1cc(N(C)[C@H]2CN(C(=O)CC#N)CC[C@H]2C)n2ncnc2n1 [Example 8] , melting point: 119.3

Every entry's value here was drawn from patent US20110165183A1.
